assayTarget: human-derived interferon gene stimulating protein (Homo sapiens, UniProt Q86WV6, G230A/H232R/R293Q/R71H)
Sequence (Q86WV6 whole entry R71H/G230A/H232R/R293Q): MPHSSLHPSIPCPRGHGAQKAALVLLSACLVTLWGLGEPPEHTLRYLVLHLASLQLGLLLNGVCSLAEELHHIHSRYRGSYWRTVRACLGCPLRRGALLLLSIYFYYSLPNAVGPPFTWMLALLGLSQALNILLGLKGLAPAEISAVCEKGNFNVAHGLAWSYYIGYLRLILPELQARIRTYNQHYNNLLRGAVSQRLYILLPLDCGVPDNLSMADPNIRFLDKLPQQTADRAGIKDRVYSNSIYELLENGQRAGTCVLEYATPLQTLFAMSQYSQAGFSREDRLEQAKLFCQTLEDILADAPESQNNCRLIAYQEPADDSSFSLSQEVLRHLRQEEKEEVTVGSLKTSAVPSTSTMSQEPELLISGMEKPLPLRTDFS
experimentalDetails: THP1-Blue-ISG reporter cell screening for activation of interferon gene stimulating protein and promotion of IFN-β expression
conditionLabel: 10 μM, THP1-Blue-ISG cells, 24 hours, OD650; average of two experiments
quantityKind: Fold change (ratio relative to the control experiment), Average value
// return just the number, without any unit appended

COc1cc2cc(C(F)(F)CCC(=O)N(O)C(F)F)sc2cc1OC : 26.95

Exercise: State the recorded Fold change (ratio relative to the control experiment), Average value for this entry: COc1cc2cc(C(F)(F)CCC(=O)N(O)C3CC3)sc2cc1OC
Solution: 30.68

Exercise: State the recorded Fold change (ratio relative to the control experiment), Average value for this entry: COc1cc2cc(C(F)(F)CCC(=O)O)sc2cc1OC
Solution: 24.95

Exercise: State the recorded Fold change (ratio relative to the control experiment), Average value for this entry: COc1cc2cc(C(F)(F)CCC(=O)NOc3ccccc3)sc2cc1OC
Solution: 22.98

Exercise: State the recorded Fold change (ratio relative to the control experiment), Average value for this entry: COc1cc2sc(C(F)(F)CCC(=O)O)cc2cc1Br
Solution: 28.74

---

assayTarget: human-derived interferon gene stimulating protein (Homo sapiens, UniProt Q86WV6, G230A/H232R/R293Q/R71H)
experimentalDetails: THP1-Blue-ISG reporter cell screening for activation of interferon gene stimulating protein and promotion of IFN-β expression
conditionLabel: 10 μM, THP1-Blue-ISG cells, 24 hours, OD650; average of two experiments
Each entry below carries its reported Fold change (ratio relative to the control experiment), Average value.
// return just the number, without any unit appended

COc1cc2cc(C(F)(F)CCC(=O)OC(C)C)sc2cc1OC : 29.00
COc1cc2cc(C(F)(F)CCC(=O)N(C)O)sc2cc1OC : 21.02
COc1cc2cc(C(F)(F)CCC(=O)N(O)C(C)C)sc2cc1OC : 29.89

Exercise: State the recorded Fold change (ratio relative to the control experiment), Average value for this entry: COC1=C(OC)CC=c2cc(C(F)CCCC(=O)N(O)C(C)C)sc2=C1 (stereo not drawn)
Solution: 20.04

Exercise: State the recorded Fold change (ratio relative to the control experiment), Average value for this entry: COc1cc2sc(C(F)(F)CCC(=O)O)cc2c(F)c1OC
Solution: 28.77

Exercise: State the recorded Fold change (ratio relative to the control experiment), Average value for this entry: O=C(O)CCC(F)(F)c1cc2cc3c(cc2s1)OCO3
Solution: 20.62

---

Each entry below carries its reported Fold change (ratio relative to the control experiment), First experiment.
assayTarget: human-derived interferon gene stimulating protein (Homo sapiens, UniProt Q86WV6, G230A/H232R/R293Q/R71H)
experimentalDetails: THP1-Blue-ISG reporter cell screening for activation of interferon gene stimulating protein and promotion of IFN-β expression
conditionLabel: 10 μM, THP1-Blue-ISG cells, 24 hours, OD650
// return just the number, without any unit appended

COc1cc2cc(C(F)(F)CCC(=O)N(O)C(F)F)sc2cc1OC : 23.95
COc1cc2cc(C(F)(F)CCC(=O)N(O)C3CC3)sc2cc1OC : 26.23
O=C(O)CCC(F)(F)c1cc2cc3c(cc2s1)OCO3 : 16.24
COc1cc2cc(C(F)(F)CCC(=O)N(O)Cc3ccccc3)sc2cc1OC : 20.44
COc1cc2cc(C(F)(F)CCC(=O)N(O)C(C)C)sc2cc1OC : 25.41

We now examine a further molecule.
Exercise: State the recorded Fold change (ratio relative to the control experiment), First experiment for this entry: COc1cc2cc(C(F)(F)CCC(=O)NOc3ccccc3)sc2cc1OC
Solution: 17.62

---

experimentalDetails: Pharmacokinetic properties in rats
Assay type: in vivo
conditionLabel: rat, plasma, Oral (3 mg/kg)
quantityKind: half-life (min)
Give just the number in min; leave the unit off.

Exercise: State the recorded half-life for this entry: COc1cc2cc(C(F)(F)CCC(=O)O)sc2cc1OC
Solution: 44.4

---

assayTarget: human-derived interferon gene stimulating protein (Homo sapiens, UniProt Q86WV6, G230A/H232R/R293Q/R71H)
experimentalDetails: THP1-Blue-ISG reporter cell screening for activation of interferon gene stimulating protein and promotion of IFN-β expression
conditionLabel: 10 μM, THP1-Blue-ISG cells, 24 hours, OD650
Each entry below carries its reported Fold change (ratio relative to the control experiment), Second experiment.
// return just the number, without any unit appended

Previously resolved entries follow.
C=Cc1cc2cc(C(F)(F)CCC(=O)O)sc2cc1OC [Compound S29] : 34.05
COc1cc2cc(C(F)(F)CCC(=O)NOc3ccccc3)sc2cc1OC [Compound S18] : 28.34

Exercise: State the recorded Fold change (ratio relative to the control experiment), Second experiment for this entry: COc1cc2cc(C(F)(F)CCC(=O)N(O)C3CC3)sc2cc1OC [Compound S15]
Solution: 35.12

Exercise: State the recorded Fold change (ratio relative to the control experiment), Second experiment for this entry: COc1cc2cc(C(F)(F)CCC(=O)O)sc2cc1OC [Compound S2]
Solution: 25.94

Exercise: State the recorded Fold change (ratio relative to the control experiment), Second experiment for this entry: COc1cc2cc(C(F)(F)CCC(=O)N(O)C(F)F)sc2cc1OC [Compound S7]
Solution: 29.94

---

assayTarget: human-derived interferon gene stimulating protein (Homo sapiens, UniProt Q86WV6, G230A/H232R/R293Q/R71H)
experimentalDetails: THP1-Blue-ISG reporter cell screening for activation of interferon gene stimulating protein and promotion of IFN-β expression
conditionLabel: 10 μM, THP1-Blue-ISG cells, 24 hours, OD650
Fold change (ratio relative to the control experiment), Second experiment below 30 gives not fulfilled; Fold change (ratio relative to the control experiment), Second experiment at or above it gives fulfilled.

COc1cc2cc(C(F)(F)CCC(=O)N(O)C(C)C)sc2cc1OC : fulfilled
CO/C1=C(\OC)C/C(F)=c2/cc(C(F)(F)CCC(=O)N(O)C(C)C)s/c2=C/C1 : fulfilled
COc1cc2cc(C(F)(F)CCC(=O)OC(C)C)sc2cc1OC : fulfilled
COc1cc2cc(C(F)(F)CCC(=O)N(O)C(F)(F)c3ccccc3)sc2cc1OC : fulfilled
COc1cc2sc(C(F)(F)CCC(=O)O)cc2c(F)c1OC : fulfilled
COc1cc2sc(C(F)(F)CCC(=O)O)cc2cc1Br : fulfilled
O=C(O)CCC(F)(F)c1cc2cc3c(cc2s1)OCO3 : not fulfilled
COc1cc2cc(C(F)(F)CCC(=O)N(O)Cc3ccccc3)sc2cc1OC : fulfilled

Exercise: Given COc1cc2cc(C(F)(F)CCC(=O)N(C)O)sc2cc1OC , state whether its Fold change (ratio relative to the control experiment), Second experiment is at least 30.
Solution: not fulfilled

Exercise: Given COC1=C(OC)CC=c2cc(C(F)CCCC(=O)N(O)C(C)C)sc2=C1 (stereo not shown) , state whether its Fold change (ratio relative to the control experiment), Second experiment is at least 30.
Solution: not fulfilled

---

experimentalDetails: Pharmacokinetic properties in rats
Assay type: in vivo
conditionLabel: rat, plasma, Intravenous (1 mg/kg)
quantityKind: half-life (min)
Give just the number in min; leave the unit off.

Exercise: State the recorded half-life for this entry: COc1cc2cc(C(F)(F)CCC(=O)O)sc2cc1OC [Compound S2]
Solution: 40.1

---

experimentalDetails: Pharmacokinetic properties in rats
Assay type: in vivo
conditionLabel: rat, plasma, Oral (3 mg/kg)
quantityKind: Cmax (ng/mL)
Give just the number in ng/mL; leave the unit off.

Exercise: State the recorded Cmax for this entry: COc1cc2cc(C(F)(F)CCC(=O)O)sc2cc1OC
Solution: 6910

---

assayTarget: human-derived interferon gene stimulating protein (Homo sapiens, UniProt Q86WV6, G230A/H232R/R293Q/R71H)
experimentalDetails: THP1-Blue-ISG reporter cell screening for activation of interferon gene stimulating protein and promotion of IFN-β expression
conditionLabel: 10 μM, THP1-Blue-ISG cells, 24 hours, OD650
Fold change (ratio relative to the control experiment), First experiment below 20 gives Criterion not met; Fold change (ratio relative to the control experiment), First experiment at or above it gives Criterion met.

COc1cc2cc(C(F)(F)CCC(=O)OC(C)C)sc2cc1OC : Criterion met
COc1cc2cc(C(F)(F)CCC(=O)N(C)O)sc2cc1OC : Criterion not met
COc1cc2sc(C(F)(F)CCC(=O)O)cc2c(F)c1OC : Criterion met

Exercise: Given COc1cc2cc(C(F)(F)CCC(=O)O)sc2cc1OC , state whether its Fold change (ratio relative to the control experiment), First experiment is at least 20.
Solution: Criterion met

Exercise: Given COc1cc2sc(C(F)(F)CCC(=O)O)cc2cc1Br , state whether its Fold change (ratio relative to the control experiment), First experiment is at least 20.
Solution: Criterion met

Exercise: Given COC1=C(OC)CC=c2cc(C(F)CCCC(=O)N(O)C(C)C)sc2=C1 (stereo not drawn) , state whether its Fold change (ratio relative to the control experiment), First experiment is at least 20.
Solution: Criterion not met
